Catalogue of %Inh values
system: INSRR; settings: concentration: 1 μM, replicates: in singlicate; n = 1;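 note: KINOMEscan kinase panel screen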
Numbers only; they are read as %.

The examples below pair each entry with its known result.
{"molecule": "COc1cc(Nc2ccnc3cc(-c4ccncc4)ccc23)cc(OC)c1OC.Cl [GW494610]", "experimentalEndpoint": "%Inh", "measurementUnit": "%", "testValue": 13}
{"molecule": "O=C(O)C(F)(F)F.O=c1[nH]ccc2nc(N[C@@H]3CCNC3)nc(Nc3ccc4c(c3)S(=O)(=O)CC4)c12 [GSK2181306]", "experimentalEndpoint": "%Inh", "measurementUnit": "%", "testValue": 40}
{"molecule": "Cc1ccccc1CC(=O)N1CCc2cc(-c3cn(C)c4ncnc(N)c34)ccc21 [GSK2603346]", "experimentalEndpoint": "%Inh", "measurementUnit": "%", "testValue": 8}

Please find the next molecule below.
Provide the documented %Inh with INSRR as the system for N#CC1(c2cccc(C(=O)Nc3cccc(Oc4ccc5nc(NC(=O)C6CC6)sc5n4)c3)c2)CC1
0

Reference source for all entries: paper PMC5540273
